- Species on record: Bos taurus
- EXPERIMENTAL DETAILS: Percentage inhibition of colchicine binding to tubulin by compound was evaluated
- Set-up: concentration or dose not given beside the values
- CONDITION: concentration not given here
// inhibition lookup, one value per entry
Dear colleague, please send the value followed by its unit.

Lookup: Please look up its inhibition: COc1cc(C(=O)c2cc(C)cc(C)c2)cc(OC)c1OC
Found: 7%

Lookup: Give the measured inhibition of COc1cc(C(=O)c2cc(Cl)cc(Cl)c2)cc(OC)c1OC .
Found: 1%

----------
- Species: Bos taurus
- EXPERIMENTAL DETAILS: Percentage inhibition of colchicine binding to tubulin by compound was evaluated
- Set-up: concentration or dose not given beside the values
- CONDITION: concentration not given here
Entry flag: Satisfied if inhibition reaches 4%; Not satisfied if it does not.

# count of solved cases: 3
CHEMICAL STRUCTURE: COc1ccc(CCc2cc(OC)c(OC)c(OC)c2)cc1O
LABEL CLASS: Satisfied

CHEMICAL STRUCTURE: COc1ccc(CCc2cc(OC)c(OC)c(OC)c2)cc1
LABEL CLASS: Satisfied

CHEMICAL STRUCTURE: COc1ccc(C(=O)c2cc(OC)c(OC)c(OC)c2)cc1OC
LABEL CLASS: Not satisfied

# next compound below
Lookup: Kindly determine if inhibition recorded for COc1cc(C(=O)c2cc(F)cc(F)c2)cc(OC)c1OC is above or exactly 4%.
Found: Not satisfied
